- system: T1, 人CD38胞外段Flag标签蛋白 hCD38-ECD-Flag (human, UniProt P28907 43-300)
- T1 construct: range 43-300; No linker between CD38 and the tag is stated; also called hCD38-Flag
- T1 sequence: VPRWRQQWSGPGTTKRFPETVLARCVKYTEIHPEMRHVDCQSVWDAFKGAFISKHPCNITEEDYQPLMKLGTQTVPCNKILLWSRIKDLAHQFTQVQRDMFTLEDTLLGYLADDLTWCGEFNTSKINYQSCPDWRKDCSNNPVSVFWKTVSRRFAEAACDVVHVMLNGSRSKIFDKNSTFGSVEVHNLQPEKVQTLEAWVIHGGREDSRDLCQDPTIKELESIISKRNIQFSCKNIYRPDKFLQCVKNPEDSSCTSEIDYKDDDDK
- test-summary: SPR, Biacore T200; antibody captured on Protein A CM5 chip, hCD38-Flag as analyte
Listing of entries alongside the reported koff.
Reply numerically in s⁻¹, unit not repeated.

Examples with answers:
人源化抗人CD38单克隆抗体145H (antibody, human IgG1, kappa, V domains shown, also called 145号抗体的人源化抗体) VH: QVQLVQSGAEVKKPGASVKVSCKASGYTFTNYLIDWVRQAPGQGLEWIGLINPGSGSTKYNEKFKGRVTLTADKSTSTAYMELSSLRSEDTAVYYCAKTGTLPYWGQGTLVTVSS VL: DIQMTQSPSSLSASVGDRVTITCKASQNVGTSVAWYQQKPGKAPKLLIYSTSYRSSGVPSRFSGSGSGTDFTLTISSLQPEDFATYYCQQYGSYPLTFGQGTKVEIKR : 0.00198
人源化抗人CD38单克隆抗体57H (antibody, human IgG1, kappa, V domains shown, also called 57号抗体的人源化抗体) VH: EVQLVESGGGLVQPGGSLRLSCAASGFTFSSFGMHWVRQAPGKGLEWVAYIGGDSNIIYYADTVKGRFTISRDNSKNTLYLQMNSLRAEDTAVYYCAKSHDYTMDYWGQGTLVTVSS VL: DIVMTQSPSSLAVSLGERVTITCKSSQSLLYSTNQKNYLAWFQQKPGQSPKLLIYWASTRESGVPDRFSGSGSGTDFTLTISSLQAEDVAVYYCQRYYNYPYTFGQGTKVEIKR : 0.000101
人源化抗人CD38单克隆抗体116H (antibody, human IgG1, kappa, V domains shown, also called 116号抗体的人源化抗体) VH: QVTLKESGPALVKPTQTLTLTCTLSGFSLSTSRMGVGWIRQPPGKGLEWLAHIWWDDDKRYNPALKSRLTISKDTSSNQVFLKIASVDKEDTATYYCGRIEVGRGAWFAYWGQGTLVTVSS VL: EIVLTQSPATLSLSPGERVSVTCKASQDVVTTVAWYQQKPGQAPRTLIYSASYRYSGVPARFSGSGSGTDFTLTISSLEPEDFAVYYCQQYYTYPFTFGQGTKVEIKR : 9.53e-05

koff for 人源化抗人CD38单克隆抗体105H (antibody, human IgG1, kappa, V domains shown, Humanized IgG1; also called 105-Humanization; 105号抗体的人源化抗体) VH: QVQLVQSGAEVKKPGASVKVSCKASGYTFTSYWMHWVRQAPGQGLEWIGHINPSSGYSEYSQKFKDRATLTADKSTSTAYMELSSLRSEDTAVYYCEIYYYVSRYVGDSWGQGTLVTVSS VL: DIQMTQSPSSLSASVGDRVTITCRASQEISGYLSWLQQKPGKTIKRLIYAASTLDSGVPSRFSGSRSGSDFTLTISSLQPEDFATYYCLQYDSYPLTFGQGTKVEIKR ?
0.000975
